Reference source for all entries: patent US20260262643A1

- Test system: green foxtail
- Measurement protocol: Test C preemergence
- Assay type: in vivo, Setaria viridis
- Setup conditions: Preemergence, 1000 g ai/ha; visual rating after 10 days, 0 to 100 scale (0 no effect, 100 complete control)
Recorded endpoint: Plant response rating, Foxtail, Green
// no unit string in output, number only

Form field Plant response rating, Foxtail, Green, entry Cc1cc(-c2cccc(C(=O)N3C[C@H](C)Oc4c(Cl)cccc43)c2)sn1 : 100

Form field Plant response rating, Foxtail, Green, entry Cc1nsc(-c2cccc(C(=O)N3C[C@H](C)Oc4c(Cl)cccc43)c2)n1 : 100

Form field Plant response rating, Foxtail, Green, entry Cc1ncc(-c2cccc(C(=O)N3C[C@H](C)Oc4c(C)cccc43)c2)cn1 : 70

Form field Plant response rating, Foxtail, Green, entry Cc1cc(-c2cccc(C(=O)N3C[C@H](C)Oc4c(C)cccc43)c2)ccn1 : 10

###

- Tested on: horseweed
- Measurement protocol: Test C postemergence
- Type: in vivo, Erigeron canadensis
- Setup conditions: Postemergence, 125 g ai/ha; 0 to 100 scale (0 no effect, 100 complete control), 10 days
- Excerpt: […]
Recorded endpoint: Plant response rating, Horseweed
// no unit string in output, number only

Form field Plant response rating, Horseweed, entry CC(C)c1ncn(-c2ccc(OS(=O)(=O)C(F)(F)F)c(C(=O)N3C[C@H](C)Oc4c(Cl)cccc43)c2)n1 : 0

Form field Plant response rating, Horseweed, entry CCOC[C@H]1CN(C(=O)c2cc(-n3cnc(C(C)C)n3)ccc2C)c2cccc(Cl)c2O1 : 30

Form field Plant response rating, Horseweed, entry Cc1cccc2c1O[C@@H](C)CN2C(=O)c1cccc(-n2cnc([N+](=O)[O-])n2)c1 : 30

Form field Plant response rating, Horseweed, entry CCOC[C@H]1CN(C(=O)c2cc(-n3cnc(C(C)C)n3)cc3c2OCO3)c2cccc(Cl)c2O1 : 40

###

- Test system: oat, wild
- Measurement protocol: Test C postemergence
- Format: in vivo, Avena fatua
- Setup conditions: 125 g ai/ha, postemergence, 10 days; 0 to 100 scale, 0 no effect, 100 complete control
Field: Plant response rating, Oat, Wild. Provide a value for each of the compounds that follow.

Form field Plant response rating, Oat, Wild, entry COc1ccc(-n2cncn2)cc1C(=O)N1C[C@H](C)Oc2c(F)cccc21 [Compound 270] : 90

Form field Plant response rating, Oat, Wild, entry Cc1ccc(-n2cnc(C3(C)CCC3)n2)cc1C(=O)N1C[C@H](C)Oc2c(Cl)cccc21 [Compound 167] : 0

Form field Plant response rating, Oat, Wild, entry Cc1ccc(-n2cnc(C3(C(F)(F)F)CCC3)n2)cc1C(=O)N1C[C@H](C)Oc2c(Cl)cccc21 [Compound 168] : 0

Form field Plant response rating, Oat, Wild, entry C[C@H]1CN(C(=O)c2cc(-n3cnc(C4CCC4)n3)cc3c2OCCO3)c2cccc(Cl)c2O1 [Compound 157] : 20

###

- System: wheat
- Measurement protocol: Test C postemergence
- Format: in vivo, Triticum aestivum
- Setup conditions: Postemergence, 500 g ai/ha, 10 days, visual 0 to 100 scale (0 no effect, 100 complete control)
Field: Plant response rating, Wheat. Provide a value for each of the compounds that follow.
// no unit string in output, number only

Form field Plant response rating, Wheat, entry CCc1ncn(-c2cc3c(c(C(=O)N4C[C@H](C)Oc5c(Cl)cccc54)c2)OCCO3)n1 [Compound 155] : 80

Form field Plant response rating, Wheat, entry C[C@H]1CN(C(=O)c2cc(-n3cnc(C4CC4)n3)cc3c2OCCO3)c2cccc(Cl)c2O1 [Compound 156] : 80

Form field Plant response rating, Wheat, entry Cc1ccc(-n2cnc(C[S+](C)[O-])n2)cc1C(=O)N1C[C@H](C)Oc2c(Cl)cccc21 (stereo partly shown) [Compound 224] : 60

Form field Plant response rating, Wheat, entry COc1cc(C(=O)N2C[C@H](C)Oc3c(Cl)cccc32)cc(-n2cnc(C3CC3)n2)c1 [Compound 216] : 30
